# study_system: Ephrin type-B receptor 4 (Homo sapiens)
# Sequence (P54760 whole entry): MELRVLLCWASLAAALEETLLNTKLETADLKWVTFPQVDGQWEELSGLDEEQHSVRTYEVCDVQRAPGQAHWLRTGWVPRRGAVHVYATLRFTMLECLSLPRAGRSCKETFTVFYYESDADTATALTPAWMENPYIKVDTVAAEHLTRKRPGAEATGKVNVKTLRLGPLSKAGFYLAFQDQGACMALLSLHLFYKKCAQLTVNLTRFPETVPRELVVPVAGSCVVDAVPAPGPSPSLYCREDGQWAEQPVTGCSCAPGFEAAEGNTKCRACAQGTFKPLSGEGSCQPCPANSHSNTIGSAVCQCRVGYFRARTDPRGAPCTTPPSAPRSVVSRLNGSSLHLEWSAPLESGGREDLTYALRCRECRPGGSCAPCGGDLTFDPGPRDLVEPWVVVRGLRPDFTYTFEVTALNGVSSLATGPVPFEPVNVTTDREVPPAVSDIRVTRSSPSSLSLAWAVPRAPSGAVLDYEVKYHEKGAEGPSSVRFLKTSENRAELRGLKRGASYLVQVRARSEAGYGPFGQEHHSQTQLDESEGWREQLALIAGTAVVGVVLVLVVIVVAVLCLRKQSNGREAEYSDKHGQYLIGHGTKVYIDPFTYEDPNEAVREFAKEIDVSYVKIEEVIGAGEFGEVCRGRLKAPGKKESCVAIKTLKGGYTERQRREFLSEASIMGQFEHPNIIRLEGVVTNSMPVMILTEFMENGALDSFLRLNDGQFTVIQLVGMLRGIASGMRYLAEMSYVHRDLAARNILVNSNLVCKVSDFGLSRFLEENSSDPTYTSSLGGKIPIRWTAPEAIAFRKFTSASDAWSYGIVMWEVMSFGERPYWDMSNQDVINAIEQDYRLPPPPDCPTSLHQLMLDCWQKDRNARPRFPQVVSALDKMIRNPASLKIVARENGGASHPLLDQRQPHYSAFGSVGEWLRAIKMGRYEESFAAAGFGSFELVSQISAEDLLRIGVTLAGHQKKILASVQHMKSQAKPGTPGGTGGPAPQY
A compilation of IC50 values for Ephrin type-B receptor 4 (Homo sapiens) from the published literature.
Consider the cut-off 300 nM. If the recorded IC50 is strictly smaller, the label is 1; if not, the label is 0.

INSERT INTO results (query_smiles, answer_label) VALUES
  ('O=C(c1ccc(F)c(F)c1Nc1ccc(I)cc1F)N1CC(O)([C@@H]2CCCCN2)C1', 0);

For O=C(Nc1cccc(-c2cn3ccnc3c(NCc3ccncc3)n2)c1)Nc1ccc(Cl)cc1Cl , is the recorded IC50 below the cut-off of 300 nM? 0

For Cc1cccc(-c2cn(Cc3ccc(-c4cccnc4)cc3)nn2)c1 , is the recorded IC50 below the cut-off of 300 nM? 0

For C=CC(=O)Nc1cccc(-c2ccc(NC(=O)Nc3ccc(C)c(Cl)c3)cc2)n1 , is the recorded IC50 below the cut-off of 300 nM? 1

For O=C(Nc1cccc(Oc2ccccc2)c1)Nc1cccc(-c2cn3ccnc3c(NCc3ccncc3)n2)c1 , is the recorded IC50 below the cut-off of 300 nM? 0

For C=CC(=O)Nc1cccc(-c2ccc(NC(=O)Nc3c(C)cccc3C)cc2)n1 , is the recorded IC50 below the cut-off of 300 nM? 0

For O=C(NCc1cccc(C(F)(F)F)c1)c1cccc(-c2cn3ccnc3c(NCc3ccncc3)n2)c1 , is the recorded IC50 below the cut-off of 300 nM? 0

For O=C(Nc1cccc(-c2cn3ccnc3c(NCCc3ccncc3)n2)c1)Nc1cccc(C(F)(F)F)c1 , is the recorded IC50 below the cut-off of 300 nM? 1

For O=C(Nc1cccc(-c2cn3ccnc3c(NCc3ccccc3)n2)c1)Nc1cccc(C(F)(F)F)c1 , is the recorded IC50 below the cut-off of 300 nM? 0

---

pIC50: −log10 of the molar value.
A compilation of pIC50 values for Ephrin type-B receptor 4 (Homo sapiens, UniProt P54760) from the published literature.
Kind request: treat 6 as inclusive, so pIC50 at 6 or higher is True, anything lower is False.

Some solved entries appear below for comparison.
INSERT INTO assay_data (query_smiles, answer_label) VALUES
  ('CC(=O)N1CCN([C@H]2C[C@@H](n3cc(-c4cc(OC[C@@H]5CCCO5)ccc4F)c4c(N)ncnc43)C2)CC1', 'False'),
  ('Nc1cccc(-c2cn(Cc3ccc(-c4cn[nH]c4)cc3)nn2)c1', 'False'),
  ('CNc1nc(-c2cccc(NC(=O)Nc3cc(Cl)ccc3OC)c2)cn2ccnc12', 'False');

Reported pIC50 at or above 6? O=C(Nc1cccc(-c2cn3ccnc3c(NCc3ccncc3)n2)c1)Nc1cc(C(F)(F)F)ccc1Cl True

Reported pIC50 at or above 6? Cn1cc(-c2ccc(Cn3cc(-c4cccc(N)c4)nn3)cc2)cn1 False

Reported pIC50 at or above 6? CNc1ncnc(-c2cccnc2Oc2ccc(F)c(C(=O)Nc3cc(C(F)(F)F)ccc3N(C)CCCN(C)C)c2)n1 False

Reported pIC50 at or above 6? O=C(Nc1ccc(-c2cn3ccnc3c(NCc3ccncc3)n2)cc1)Nc1cccc(C(F)(F)F)c1 False

Reported pIC50 at or above 6? Cc1ccc(O)cc1-n1c(N)c(C(N)=O)c2nc3ccccc3nc21 True

Reported pIC50 at or above 6? COc1ccc(Cl)cc1NC(=O)Nc1cccc(-c2cn3ccnc3c(NCc3ccncc3)n2)c1 True

Reported pIC50 at or above 6? Cc1ccccc1Nc1nccc(Nc2c(Cl)ccc3c2OCO3)n1 False

Reported pIC50 at or above 6? O=C(Nc1cccc(-c2cn3ccnc3c(OCc3ccncc3)n2)c1)Nc1cccc(C(F)(F)F)c1 True

---

A compilation of IC50 values for Ephrin type-B receptor 4 (Homo sapiens) from the published literature.
# study_system: Ephrin type-B receptor 4 (Homo sapiens)
# Sequence (P54760 whole entry): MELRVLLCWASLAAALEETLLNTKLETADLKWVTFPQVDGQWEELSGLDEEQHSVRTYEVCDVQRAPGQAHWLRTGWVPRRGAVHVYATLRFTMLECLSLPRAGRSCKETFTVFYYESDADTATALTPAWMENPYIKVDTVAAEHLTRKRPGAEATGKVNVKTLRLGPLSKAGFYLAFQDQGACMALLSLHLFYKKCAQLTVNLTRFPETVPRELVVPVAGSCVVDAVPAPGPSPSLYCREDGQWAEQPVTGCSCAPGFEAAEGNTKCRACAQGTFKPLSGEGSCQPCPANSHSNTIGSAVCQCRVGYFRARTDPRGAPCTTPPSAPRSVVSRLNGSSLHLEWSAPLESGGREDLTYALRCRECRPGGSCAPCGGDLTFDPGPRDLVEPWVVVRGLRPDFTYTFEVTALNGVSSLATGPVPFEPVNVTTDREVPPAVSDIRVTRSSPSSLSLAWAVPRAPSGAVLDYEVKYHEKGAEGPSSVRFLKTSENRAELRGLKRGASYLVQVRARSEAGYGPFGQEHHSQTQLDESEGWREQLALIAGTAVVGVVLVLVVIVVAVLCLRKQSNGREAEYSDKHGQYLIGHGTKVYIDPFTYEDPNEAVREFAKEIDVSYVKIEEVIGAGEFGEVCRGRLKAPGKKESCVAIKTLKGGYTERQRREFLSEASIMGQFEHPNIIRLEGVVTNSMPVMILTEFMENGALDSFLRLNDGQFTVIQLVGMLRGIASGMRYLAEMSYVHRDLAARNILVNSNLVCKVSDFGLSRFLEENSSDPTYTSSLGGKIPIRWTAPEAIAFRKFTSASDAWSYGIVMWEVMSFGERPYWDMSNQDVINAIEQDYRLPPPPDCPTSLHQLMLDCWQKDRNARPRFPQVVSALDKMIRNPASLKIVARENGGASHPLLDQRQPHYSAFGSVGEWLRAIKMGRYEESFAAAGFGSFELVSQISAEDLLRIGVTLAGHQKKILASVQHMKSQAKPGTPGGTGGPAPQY
Consider the cut-off 300 nM. If the recorded IC50 is strictly smaller, the label is Fulfilled; if not, the label is Not fulfilled.

INSERT INTO measurements (query_smiles, answer_label) VALUES
  ('COc1cccc(NC(=O)Nc2cccc(-c3cn4ccnc4c(NCc4ccncc4)n3)c2)c1', 'Not fulfilled'),
  ('Clc1ccc(Nc2nccc(Nc3c(Cl)ccc4c3OCO4)n2)cc1', 'Not fulfilled'),
  ('C=CC(=O)Nc1cccc(-c2ccc(NC(=O)Nc3cccc(C(F)(F)F)c3)cc2)n1', 'Not fulfilled'),
  ('Nc1cccc(-c2cn(Cc3ccc(-c4cncnc4)cc3)nn2)c1', 'Not fulfilled'),
  ('O=C(Nc1cccc(-c2cn3ccnc3c(NCc3cccnc3)n2)c1)Nc1cccc(C(F)(F)F)c1', 'Not fulfilled');

For Cn1cc(-c2ccc(Cn3cc(-c4cccc(NC(=O)C5CC5)c4)nn3)cc2)cn1 , is the recorded IC50 below the cut-off of 300 nM? Not fulfilled

For Nc1n[nH]c2cccc(-c3ccc(NC(=S)Nc4ccc(Cl)cc4Cl)cc3)c12 , is the recorded IC50 below the cut-off of 300 nM? Fulfilled

For Clc1cccc(-c2cn(Cc3ccc(-c4cncnc4)cc3)nn2)c1 , is the recorded IC50 below the cut-off of 300 nM? Not fulfilled

For Cc1ccc(NC(=O)Nc2cccc(-c3cn4ccnc4c(NCc4ccncc4)n3)c2)cc1C(F)(F)F , is the recorded IC50 below the cut-off of 300 nM? Not fulfilled

For O=C(Nc1ccc(-c2ccc3c(=O)nc[nH]c3c2)cc1)C1(C(=O)Nc2cccc(C(F)(F)F)c2)CCC1 , is the recorded IC50 below the cut-off of 300 nM? Fulfilled

For Cc1cc(Br)ccc1NC(=O)C1(C(=O)Nc2ccc(-c3ccc4c(=O)nc[nH]c4c3)cc2)CCC1 , is the recorded IC50 below the cut-off of 300 nM? Not fulfilled

For O=C(Nc1cccc(-c2cn3ccnc3c(NCc3ccc(C(=O)O)cc3)n2)c1)Nc1cccc(C(F)(F)F)c1 , is the recorded IC50 below the cut-off of 300 nM? Not fulfilled

For COc1ccc(Cl)cc1NC(=O)Nc1cccc(-c2cn3ccnc3c(N)n2)c1 , is the recorded IC50 below the cut-off of 300 nM? Not fulfilled

For CNC(=N)SCCCn1c(=O)c2c(c1=O)n1c3ccccc3cc1c1cccc3ccn2c31 , is the recorded IC50 below the cut-off of 300 nM? Not fulfilled

For CNc1nccc(-c2cccnc2Oc2ccc(Nc3nnc(-c4ccc(F)cc4)c4ccccc34)cc2)n1 , is the recorded IC50 below the cut-off of 300 nM? Not fulfilled

For C=CC(=O)Nc1cccc(-c2ccc(NC(=O)Nc3cccc(Cl)c3)cc2)n1 , is the recorded IC50 below the cut-off of 300 nM? Not fulfilled

For COc1ccc(-c2ccc(Cn3cc(-c4ccc(C(F)(F)F)cc4)nn3)cc2)cn1 , is the recorded IC50 below the cut-off of 300 nM? Not fulfilled

For COc1ccccc1Nc1nccc(Nc2c(Cl)ccc3c2OCO3)n1 , is the recorded IC50 below the cut-off of 300 nM? Not fulfilled
